Test: Cmax in CD-1 mouse at 10 mg/kg,ip measured upto 1440 mins by LC-MS/MS analysis
Format: ADME, organism-based
Design: time < 1440 min, dose 10 mg/kg, route ip
Conditions: CD-1, mouse, in vivo, read-out: Cmax
experimentalReadout: Cmax (ng/mL)
Numeric only. Scale: ng/mL

Request: Report Cmax for `Cl.Nc1ncc(-c2cnc3ccc(C(=O)N4CCCCC4)cc3n2)cc1Cl`
Response: 3000

----------
Assay: AUC in CD-1 mouse at 10 mg/kg,ip measured upto 1440 mins by LC-MS/MS analysis
Format: ADME, organism-based
Parameters: time < 1440 min, dose 10 mg/kg, route ip
Details: CD-1, mouse, in vivo
experimentalReadout: AUC at 24 h (ng·h/mL)
Numeric only. Scale: ng·h/mL

Request: Report AUC at 24 h for `Cl.Nc1ncc(-c2cnc3ccc(C(=O)N4CCCCC4)cc3n2)cc1Cl`
Response: 2870
